Cited source for all entries: patent US11712434B2

# Test system: NCI-H716
# test: Cell proliferation assay (Alamar Blue)
# Format: cell-based
# measurement-setup: Homo sapiens, 144 h; NCI-H716 tumor cell line; 6 days culture
As shown below, each of these molecules has a reported pIC50 value.
Entry type: numeric. Quantity: pIC50, the -log10 of concentration in molar units.

Documented pIC50 of Cc1ccc(F)c(NC(=O)Nc2ccc(-c3cccc4[nH]nc(NC(=O)C[C@H](N)C(=O)N[C@@H](CCC(=O)N[C@@H](CCC(=O)N[C@@H](CCC(=O)N[C@@H](CCC(=O)O)C(=O)O)C(=O)O)C(=O)O)C(=O)O)c34)cc2)c1 [Compound 2] : 4.97

Documented pIC50 of Cc1ccc(F)c(NC(=O)Nc2ccc(-c3cccc4[nH]nc(N)c34)cc2)c1 [Linifanib, reference compound] : 5.39

Documented pIC50 of Cc1ccc(F)c(NC(=O)Nc2ccc(-c3cccc4[nH]nc(NC(=O)CCCCCCCCCCCNC(=O)C[C@H](N)C(=O)N[C@@H](CCC(=O)N[C@@H](CCC(=O)N[C@@H](CCC(=O)N[C@@H](CCC(=O)O)C(=O)O)C(=O)O)C(=O)O)C(=O)O)c34)cc2)c1 [Compound 8] : 4.35

Documented pIC50 of Cc1ccc(F)c(NC(=O)Nc2ccc(-c3cccc4[nH]nc(NC(=O)C[C@H](N)C(=O)O)c34)cc2)c1 [Compound 10] : 5.29

Documented pIC50 of Cc1ccc(F)c(NC(=O)Nc2ccc(-c3cccc4[nH]nc(NC(=O)C[C@H](N)C(=O)N[C@@H](CCC(=O)O)C(=O)O)c34)cc2)c1 [Compound 1] : 5.26
